biological target: 15-hydroxyprostaglandin dehydrogenase [NAD(+)] (Homo sapiens) (UniProt P15428); test: ligand-induced stabilization of human HPGD – biophysical, DSF, SYPRO orange, purified protein (AID 388); conditions: at 10 µM, buffer 10 mM HEPES, pH 7.5, NaCl 150 mM, hits give high values
Sequence (P15428 whole entry, looked up): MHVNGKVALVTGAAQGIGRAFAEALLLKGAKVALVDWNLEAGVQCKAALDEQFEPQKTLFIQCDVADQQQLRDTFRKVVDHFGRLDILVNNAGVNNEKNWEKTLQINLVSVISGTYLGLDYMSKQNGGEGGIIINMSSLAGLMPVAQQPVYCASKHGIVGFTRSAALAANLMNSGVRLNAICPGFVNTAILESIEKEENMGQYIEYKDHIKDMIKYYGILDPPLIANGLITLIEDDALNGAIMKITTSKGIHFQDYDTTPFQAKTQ
Endpoint label: Tm shift

- Smi: "C[C@@]1(c2ccc(O)cc2)CC(=O)c2c(O)cc(O)cc2O1"
  Value observed: "2.25 Celsius"
- Smi: "O=C1NC(=O)c2c1c1c3ccccc3[nH]c1c1[nH]c3cc(Br)ccc3c21"
  Value observed: "2.11 Celsius"
- Smi: "CC1=CC(=O)C=C(C)C1=O"
  Value observed: "6.05 Celsius"

Reference for the values: PubChem BioAssay AID388
